Just for reference, patent US20260297085A1 is where these values come from.

What IC50 was measured for each of the following?
tested.system: Tyk2 kinase activity on STAT4 in NK92 cells (Homo sapiens, UniProt P29597)
Sequence (P29597 whole entry): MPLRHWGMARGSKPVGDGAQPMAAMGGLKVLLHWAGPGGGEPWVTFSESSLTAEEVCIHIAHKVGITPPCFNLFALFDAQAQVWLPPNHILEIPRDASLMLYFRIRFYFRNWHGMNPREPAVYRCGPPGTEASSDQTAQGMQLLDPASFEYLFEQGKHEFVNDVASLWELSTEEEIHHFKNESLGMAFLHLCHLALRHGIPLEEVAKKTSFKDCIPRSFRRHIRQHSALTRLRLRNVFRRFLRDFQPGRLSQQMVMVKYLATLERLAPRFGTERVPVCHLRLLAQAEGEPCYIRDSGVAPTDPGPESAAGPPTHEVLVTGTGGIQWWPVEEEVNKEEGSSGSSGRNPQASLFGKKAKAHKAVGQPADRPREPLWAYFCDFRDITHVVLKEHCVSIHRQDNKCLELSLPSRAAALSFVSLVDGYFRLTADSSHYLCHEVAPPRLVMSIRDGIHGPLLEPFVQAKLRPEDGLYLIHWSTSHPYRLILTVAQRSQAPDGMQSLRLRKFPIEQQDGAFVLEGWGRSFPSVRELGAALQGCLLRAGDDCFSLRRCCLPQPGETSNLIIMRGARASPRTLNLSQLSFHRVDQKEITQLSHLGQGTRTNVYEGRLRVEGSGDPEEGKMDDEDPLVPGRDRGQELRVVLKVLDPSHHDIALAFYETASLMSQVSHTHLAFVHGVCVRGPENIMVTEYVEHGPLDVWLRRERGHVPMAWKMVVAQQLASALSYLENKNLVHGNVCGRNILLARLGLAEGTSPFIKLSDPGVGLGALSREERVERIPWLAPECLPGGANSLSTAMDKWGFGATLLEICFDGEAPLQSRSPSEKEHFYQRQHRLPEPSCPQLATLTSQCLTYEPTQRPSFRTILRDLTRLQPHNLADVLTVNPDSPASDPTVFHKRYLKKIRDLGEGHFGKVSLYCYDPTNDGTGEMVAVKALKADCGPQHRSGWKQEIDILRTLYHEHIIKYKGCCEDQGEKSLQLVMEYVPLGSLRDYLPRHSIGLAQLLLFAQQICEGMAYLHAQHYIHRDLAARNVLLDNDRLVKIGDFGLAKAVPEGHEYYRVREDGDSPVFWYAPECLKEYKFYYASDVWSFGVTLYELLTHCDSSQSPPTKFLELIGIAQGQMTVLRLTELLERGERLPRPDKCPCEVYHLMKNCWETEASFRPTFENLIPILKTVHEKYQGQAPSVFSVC
test.description: pSTAT4 cell assay (MSD; NK92 cells, 30 ng/mL IL2 stimulation)
applied.conditions: 30 ng/mL IL2, 15 minutes
Structures can show the parent of a compound that is named as a salt.

Read off the recorded IC50 for Cc1cncc(-c2cn3nccc3c(N3C[C@@H](C)[C@@](C#N)(C4CC4)C3=O)n2)c1 [Example 236]
> 100 nM

Read off the recorded IC50 for C[C@@H]1CN(c2ccnn3cc(-c4ccnc(C(F)(F)F)c4)cc23)C(=O)[C@]1(C#N)C1CC1 [Example 69]
> 100 nM

Read off the recorded IC50 for C[C@@H]1CN(c2nc(-c3ccnc(F)c3)cn3nccc23)C(=O)[C@]1(C#N)C1CC1 [Example 237, trifluoroacetate]
50 to 100 nM

Read off the recorded IC50 for C[C@@H]1CN(c2ccnn3cc(-c4c[nH]c5ncccc45)cc23)C(=O)[C@]1(C#N)C1CC1 [Example 72]
> 100 nM

Read off the recorded IC50 for CC(C)n1cc(-c2cc3nccc(N4C[C@@H](C)[C@@](C#N)(C5CC5)C4=O)c3o2)cn1 [Example 346]
> 100 nM

Read off the recorded IC50 for C[C@@H]1CN(c2ccnn3cc(-c4ccc5cncn5c4)cc23)C(=O)[C@]1(C#N)C1CC1 [Example 51]
50 to 100 nM

Read off the recorded IC50 for C[C@@H]1OC[C@@H]1n1cc(-c2cn3ncc(F)c3c(N3C[C@@H](C)[C@@](C#N)(C4CC4)C3=O)n2)cn1 (relative stereo) [Example 305]
> 100 nM

Read off the recorded IC50 for C[C@@H]1CN(c2ccnn3cc(-c4ccnc(C#N)c4)cc23)C(=O)[C@]1(C#N)C1CC1 [Example 93]
> 100 nM

Read off the recorded IC50 for C[C@@H]1CN(c2nc(-c3cnn(-c4ccccn4)c3)cn3nccc23)C(=O)[C@]1(C#N)C1CC1 [Example 296]
20 to 50 nM

Read off the recorded IC50 for C[C@@H]1CN(c2ccnn3cc(-c4cnn(C)c4)cc23)C(=O)[C@]1(C#N)C1CC1 [Example 34]
20 to 50 nM

Read off the recorded IC50 for C[C@@H]1CN(c2ccnn3cc(-c4cncc(O)c4)cc23)C(=O)[C@]1(C#N)C1CC1 [Example 53]
> 100 nM

Read off the recorded IC50 for C[C@@H]1CN(c2nc(-c3cnn(CC(F)F)c3)cc3ncsc23)C(=O)[C@]1(C#N)C1CC1 [Example 354]
20 to 50 nM

Read off the recorded IC50 for Cc1c(-c2cc3c(N4C[C@@H](C)[C@@](C#N)(C5CC5)C4=O)ccnn3c2)cnn1C [Example 166]
> 100 nM

Read off the recorded IC50 for C[C@@H]1CN(c2nc(-c3ccc(N(C)C(=O)OC(C)(C)C)nc3)cn3nccc23)C(=O)[C@]1(C#N)C1CC1 [Example 266, trifluoroacetate]
50 to 100 nM

Read off the recorded IC50 for Cc1nn(C)cc1-c1cc2c(N3C[C@@H](C)[C@@](C#N)(C4CC4)C3=O)ccnn2c1 [Example 165]
20 to 50 nM
